# System: TK-10 renal
# assay-explanation: NCI tumour cell line growth inhibition, 48 h
observation-type: GI50

{"compound": "COCO[C@@H]1CC2C=Nc3cc(OCc4ccccc4)c(OC)cc3C(=O)N2C1 (some centres undefined)", "assay-target": "TK-10 renal", "result": "869 nM"}

Give GI50 (TK-10 renal) of the following compound: CNc1ccc(C(=O)CC(O)CCC(C)C2OC(=O)CC(O)CC(=O)CC(O)CC(O)CC(O)CC(O)CC3(O)CC(O)C(C(=O)NCCc4ccccn4)C(CC(OC4OC(C)C(O)C(N)C4O)/C=C/C=C/C=C/C=C\C=C/C=C/C=C/C2C)O3)cc1 (centres undefined)
128 nM

Request: GI50, test system TK-10 renal, entry O=C(c1ccncc1)N1CCN(C2=NS(=O)(=O)c3ccccc3N2c2ccccc2)CC1
31500 nM

Please provide the recorded GI50 for CCc1cccc(CC)c1NC(=O)c1ccn2c1CCc1cnc(Nc3ccc(N4CCN(C)CC4)cc3OC)nc1-2 , tested on TK-10 renal.
2930 nM

What value of GI50 on TK-10 renal does CC#CC(=O)N[C@H]1CCCN(c2c(F)cc(C(N)=O)c3[nH]c(C)c(C)c23)C1 have?
24500 nM

Param readout= GI50; system= TK-10 renal; entry= CNC(=O)c1c(NC(=O)c2ccc(C(C)C)cc2)sc2c1CCC(=O)C2 ; returns value.
504 nM

# query: GI50 | item O=C1c2ccccc2CCC1(Br)Br | system: TK-10 renal
1500 nM

# value lookup — system TK-10 renal, readout GI50, item O=C(Nc1ccc(O)c(NS(=O)(=O)c2ccc(F)cc2)c1)c1ccc(-c2ccccc2)cc1
11900 nM

Test system TK-10 renal; read-out GI50; what value for Cc1nc2sc(C(=O)Nc3cccc(Cl)c3C)c(N)c2cc1C(=O)c1ccccc1 ?
2480 nM

###

Item-by-item account of TGI
# Tested on: A549 NSCLC
# assay-explanation: NCI tumour cell line growth inhibition, 48 h

{"molecule": "CCCN(CCC)c1ccc(/C=N/NC(=O)c2cccnc2)cc1", "result": "> 100 µM"}
{"molecule": "CC1=C2c3ccccc3N(S(=O)(=O)c3ccccc3)[C@H]2[C@H](C(=O)N2C3CC4CC[C@@]3(CS2(=O)=O)C4(C)C)CC1 (stereo not given in full)", "result": "> 100 µM"}
{"molecule": "COC(=O)CCSC1=CC(=O)c2nc3ccccc3c3ccnc1c23", "result": "> 100 µM"}
{"molecule": "O=C1Cc2c(-c3ccccc3)cc(-c3ccc4ccccc4c3)nc2-c2ccccc2N1", "result": "> 100 µM"}
{"molecule": "CCC[CH2][Ge]([CH2]CCC)([CH2]CCC)[O]C(=O)C(OC(C)=O)c1ccccc1 (stereo not given)", "result": "30.9 µM"}
{"molecule": "Cc1ccc(S(=O)(=O)NC(=O)C#CCOC2CCCCO2)cc1 (stereo not given)", "result": "> 100 µM"}
{"molecule": "COc1ccc(N2C(=O)C3c4[nH]c5cc(Cl)ccc5c4C4CCC(C(C)(C)C)CC4C3C2=O)cc1 (stereo not given)", "result": "> 100 µM"}
{"molecule": "O=C(Nc1ccc(O)c(NS(=O)(=O)c2ccc(F)cc2)c1)c1ccc(-c2ccccc2)cc1", "result": "29.9 µM"}
{"molecule": "C=C(CN(C)C)C(=O)c1ccc(OC)cc1", "result": "42.8 µM"}

Turning to the following molecule.
// query TGI value for entry CC(C(=O)N1C(=O)N(C(=O)[C@H](C)C(O)c2ccccc2)[C@H](c2ccccc2)[C@H]1c1ccccc1)[C@@H](O)c1ccccc1 (stereo not given in full)
> 100 µM

###

# System: K-562 leukemia
# assay-explanation: NCI tumour cell line growth inhibition, 48 h
observation-type: TGI

Completed entries (count: 10):
{"compound": "CC(=O)O[C@H]1CC[C@@]2(C)C(=CC[C@H]3[C@@H]4C/C(=C\\c5ccncc5)[C@H](OC(C)=O)[C@@]4(C)CC[C@@H]32)C1", "assay-target": "K-562 leukemia", "TGI": "42.4 µM"}
{"compound": "Cc1ccc(C)c(N2C(=O)C(=O)c3c(C)ccc(C)c32)c1", "assay-target": "K-562 leukemia", "TGI": "48.5 µM"}
{"compound": "NC(=O)OCC(COc1ccc(Cl)cc1)OC(=O)c1cc([N+](=O)[O-])cc([N+](=O)[O-])c1 (stereo not given)", "assay-target": "K-562 leukemia", "TGI": "> 100 µM"}
{"compound": "COC(=O)C(C(=O)C(=O)Nc1ccc([N+](=O)[O-])cc1)c1nc2cc(C)c(C)cc2[nH]c1=O (stereo not given)", "assay-target": "K-562 leukemia", "TGI": "> 100 µM"}
{"compound": "CCCCCCCSCC1OC(n2cnc3c(N)ncnc32)C(O)C1O (stereo not given)", "assay-target": "K-562 leukemia", "TGI": "> 100 µM"}
{"compound": "COc1cccc2cc(-c3nc(C4CCC(C(=O)O)CC4)n4ncnc(N)c34)[nH]c12 (stereo not given)", "assay-target": "K-562 leukemia", "TGI": "> 100 µM"}
{"compound": "N#C/C(=C\\c1ccc([N+](=O)[O-])s1)c1nc2cc(Br)ccc2s1", "assay-target": "K-562 leukemia", "TGI": "> 40.6 µM"}
{"compound": "CS(=O)(=O)c1ccc(-c2[nH]c3ccc(F)cc3c2/C=N/NC(N)=S)cc1", "assay-target": "K-562 leukemia", "TGI": "41.2 µM"}
{"compound": "O=C(Nc1ccc(O)c(NS(=O)(=O)c2ccc(F)cc2)c1)c1ccc(-c2ccccc2)cc1", "assay-target": "K-562 leukemia", "TGI": "14.6 µM"}
{"compound": "COC(=O)c1c2c(cc3c1CC1(C3)Cc3ccc4c(c3C1=O)CCC4)CCC2 (stereo not given)", "assay-target": "K-562 leukemia", "TGI": "> 100 µM"}

Form field: reported TGI of O=C1C2C3CCC(C2C(=O)N1CO)C1C2C(=O)N(CO)C(=O)C2C31 (stereo not given)
> 75.2 µM

Suppose we examine the compound O=C1CSC(c2ccccc2[N+](=O)[O-])N1c1ccc(-n2c(-c3ccccc3)nc3ccccc3c2=O)cc1 (stereo not given) ; what TGI value has been reported?
> 100 µM

Record request: TGI value, item COc1cc2c(cc1OC)C1(c3ccccc3)ON=C(c3ccccc3)N1CS2 (stereo not given)
> 100 µM

Quick check: TGI of CCOC(=O)/C(=C/c1ccc(Cl)cc1)N(CC)CC ?
> 100 µM

// lookup TGI for C/C=C/C=C\C(=O)C1c2cccc(O)c2C(=O)c2c(O)cc(C)cc21 (stereo not given)
> 100 µM

What value of measured TGI is listed for CNC(=O)OCc1cc2ccncc2c2c1[nH]c1ccccc12 ?
> 100 µM

May I ask what TGI has been recorded for COc1ccc2[nH]cc(CN3CCC(CO)(c4ccccc4)CC3)c2c1 ?
43.1 µM

Quick one: TGI for NCC(=O)NC(CO)C(=O)O (stereo not given) ?
> 100 µM

What does the data say about its TGI? Entry: O=[N+]([O-])c1cc([N+](=O)[O-])c(C(Cl)C(Cl)c2ccccc2)cc1C(Cl)C(Cl)c1ccccc1 (stereo not given)
3.58 µM

What TGI value was documented for this compound, CCOP(=O)(OCC)/C(C#N)=C/c1cc(O)ccc1O ?
> 100 µM

###

# Tested on: NCI-H522 lung
# assay-explanation: NCI tumour cell line growth inhibition, 48 h
observation-type: TGI

{"compound": "COc1ccc(N2C(=O)C3c4[nH]c5cc(Cl)ccc5c4C4CCC(C(C)(C)C)CC4C3C2=O)cc1 (stereo unspecified)", "TGI": "> 100 µM"}
{"compound": "CC(=O)Nc1ccc(S(=O)(=O)c2ccc(NC(C)=O)cc2)cc1", "TGI": "> 100 µM"}
{"compound": "C(=C\\c1nc2ccccc2s1)/c1ccc(N2CCOCC2)s1", "TGI": "> 100 µM"}
{"compound": "O=c1cc(-c2ccccc2)nc2cc(-c3ccco3)[nH]n12", "TGI": "40.7 µM"}
{"compound": "Cc1ccc(N=Nc2c(C)nn(C(=O)CC(=O)Nc3ccc(Cl)cc3)c2C)cc1C", "TGI": "> 100 µM"}

Request the reported TGI associated with Cc1cc(O)c(O)c(Oc2cc(C)cc(O)c2O)c1
34.8 µM

Any idea what its TGI is? The compound is NS(=O)(=O)c1ccc(N=Nc2nc3[nH]cnc(=S)c3[nH]2)cc1
10.2 µM

Entry COc1cc2c(cc1O)-c1c(OC)c(O)cc3c1C(C2)N(C)CC3 (stereo unspecified) has what TGI?
> 100 µM

###

Catalogue of compounds with associated GI50
# Test system: DU-145 prostate
# assay-explanation: NCI tumour cell line growth inhibition, 48 h

Given O=C(O)CP(=O)(c1ccccc1)c1ccccc1.O=C(O)CP(=O)(c1ccccc1)c1ccccc1.[Cd] , state its recorded GI50.
19.4 µM

Consider the compound O=C1C(Cl)=C(Nc2ccccn2)C(=O)c2ccccc21 and give its measured GI50.
1.94 µM

The measured values listed here are drawn from PubChem BioAssay (NCI).
